Tested on: alkaline phosphatase (AP)
Assay: Chemiluminescent detection of alkaline phosphatase with acridan phosphate and surfactant enhancer
Format: biochemical
Settings: acridan 1 with 10^−16 mol of AP; each surfactant at the concentration producing the greatest enhancement
endpoint-name: Rel. (S/B normalized to the results obtained with no enhancer)
Would you mind answering with just the numeric figure?

For `CCCCCCCC[N+](CCCCCCCC)(CCCCCCCC)Cc1ccc(C[N+](CCCC)(CCCC)CCCC)cc1.[Cl-].[Cl-]` , what is its reported Rel. (S/B normalized to the results obtained with no enhancer)? 1.2

Same question for `CCCCCCCC[P+](CCCCCCCC)(CCCCCCCC)Cc1ccc(C[P+](CCCC)(CCCC)CCCC)cc1.[Cl-].[Cl-]` please. 11.6

Same question for CCCCCCCCCCCCOS(=O)(=O)[O-].[Na+] [Surfactant H, sodium dodecyl sulfate] please. 1.9

Same question for CCCCCCCCCCCCCCCC[N+](C)(C)C.[Br-] [Surfactant I, cetyltrimethylammonium bromide] please. 1.7

* * *

Field: S/B (ratio of light intensities with AP and with no enzyme). Provide a value for each of the molecules that follow.
Tested on: alkaline phosphatase (AP)
Assay: Chemiluminescent detection of alkaline phosphatase with acridan phosphate and surfactant enhancer
Assay type: biochemical
Conditions: acridan 1 with 10^−16 mol of AP; each surfactant at the concentration producing the greatest enhancement
Would you mind answering with just the numeric figure?

For CCCCCCCCCCCCCCCC[N+](C)(C)C.[Br-] [Surfactant I, cetyltrimethylammonium bromide] , what is its reported S/B (ratio of light intensities with AP and with no enzyme)? 24

Same question for `CCCCCCCC[N+](CCCCCCCC)(CCCCCCCC)Cc1ccc(C[N+](CCCC)(CCCC)CCCC)cc1.[Cl-].[Cl-]` please. 17

Same question for `CCCCCCCC[P+](CCCCCCCC)(CCCCCCCC)Cc1ccc(C[P+](CCCC)(CCCC)CCCC)cc1.[Cl-].[Cl-]` please. 162

Same question for CCCCCCCCCCCCOS(=O)(=O)[O-].[Na+] [Surfactant H, sodium dodecyl sulfate] please. 26
